Each entry below carries its reported Ki.
molecular target: Recombinant human JAK2 kinase domain protein (Residues 812-1132) (Homo sapiens); construct: human JAK2 kinase domain protein (Residues 812-1132); made in house; host or cells: insect cells; experiment: JAK2 biochemical assay (microfluidic mobility shift, peptide phosphorylation); details: 25 μM ATP, 0.2 nM total JAK2; Ki calculated from Ki app (tight-binding, competitive); read-out: Biochem JAK2 Ki
Sequence (O60674 812-1132): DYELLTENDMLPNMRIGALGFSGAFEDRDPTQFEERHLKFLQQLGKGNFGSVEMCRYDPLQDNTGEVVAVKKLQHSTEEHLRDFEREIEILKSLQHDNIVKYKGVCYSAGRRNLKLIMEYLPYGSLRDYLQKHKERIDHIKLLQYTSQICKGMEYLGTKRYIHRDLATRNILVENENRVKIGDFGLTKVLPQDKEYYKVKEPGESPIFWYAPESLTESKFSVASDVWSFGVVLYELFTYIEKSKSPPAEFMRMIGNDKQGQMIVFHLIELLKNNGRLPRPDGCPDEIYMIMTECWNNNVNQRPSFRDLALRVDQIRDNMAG
Readout: Ki (pM)

Compound: CSc1ccc(OC(F)F)c(-c2nn(Cc3nnn(CCN)n3)cc2NC(=O)c2cnn3cccnc23)c1
Readout: Ki
Endpoint result: 180

Compound: CN(C)[C@H]1C[C@@H](n2nnc(Cn3cc(NC(=O)c4cnn5cccnc45)c(-c4cc(OC(F)F)ccc4OC(F)F)n3)n2)C1
Readout: Ki
Endpoint result: 460

Compound: CN(C)CC(F)CN1CC(n2nnc(Cn3cc(NC(=O)c4cnn5cccnc45)c(-c4cc(OC(F)F)ccc4OC(F)F)n3)n2)C1 (single isomer, unassigned) [Example 83]
Readout: Ki
Endpoint result: 390

Compound: CN1CCC(n2nnc(Cn3cc(NC(=O)c4cnn5cccnc45)c(-c4cc(Cl)ccc4OC(F)F)n3)n2)CC1
Readout: Ki
Endpoint result: 430

Compound: CN(C)CC(F)CN1CC(n2nnc(Cn3cc(NC(=O)c4cnn5cccnc45)c(-c4cc(OC(F)F)ccc4OC(F)F)n3)n2)C1 (single isomer, unassigned) [Example 84]
Readout: Ki
Endpoint result: 500

Compound: CNCCn1nnc(Cn2cc(NC(=O)c3cnn4cccnc34)c(-c3cc(OC(F)F)ccc3OC(F)F)n2)n1
Readout: Ki
Endpoint result: 460

Compound: O=C(Nc1cn(Cc2nnn(C3CCN(C4CCOCC4)CC3)n2)nc1-c1cc(Cl)ccc1OC(F)F)c1cnn2cccnc12
Readout: Ki
Endpoint result: 240

Compound: CN1CC(CN2CC(n3nnc(Cn4cc(NC(=O)c5cnn6cccnc56)c(-c5cc(OC(F)F)ccc5OC(F)F)n4)n3)C2)C1
Readout: Ki
Endpoint result: 730

Compound: CN(C)CCN(C)C1CC(n2nnc(Cn3cc(NC(=O)c4cnn5cccnc45)c(-c4cc(OC(F)F)ccc4OC(F)F)n3)n2)C1 (single isomer, unassigned) [Example 82, formic acid]
Readout: Ki
Endpoint result: 470

Compound: CN1CCC(N2CC(n3nnc(Cn4cc(NC(=O)c5cnn6cccnc56)c(-c5cc(OC(F)F)ccc5OC(F)F)n4)n3)C2)C1 (single isomer, unassigned) [Example 73]
Readout: Ki
Endpoint result: 550

Compound: O=C(Nc1cn(Cc2nnn(C3COC3)n2)nc1-c1cc(Cl)ccc1OC(F)F)c1cnn2cccnc12
Readout: Ki
Endpoint result: 120

Compound: O=C(Nc1cn(Cc2nnn(C3CCNC3)n2)nc1-c1cc(OC(F)F)ccc1OC(F)F)c1cnn2cccnc12 (single isomer, unassigned) [Example 27]
Readout: Ki
Endpoint result: 380

----------
Each entry below carries its reported Ki.
molecular target: recombinant human JAK1 kinase domain protein (Residues 854-1154) (Homo sapiens, UniProt P23458); construct: human JAK1 kinase domain protein (Residues 854-1154); purchased Proteros Biostructures GmbH (Martinsried, Germany); host or cells: insect cells; test: JAK1 biochemical assay (microfluidic mobility shift, peptide phosphorylation); settings: 25 μM ATP, 1 nM total JAK1; Ki calculated from Ki app (tight-binding, competitive); read-out: Biochem JAK1 Ki
Sequence (P23458 854-1154): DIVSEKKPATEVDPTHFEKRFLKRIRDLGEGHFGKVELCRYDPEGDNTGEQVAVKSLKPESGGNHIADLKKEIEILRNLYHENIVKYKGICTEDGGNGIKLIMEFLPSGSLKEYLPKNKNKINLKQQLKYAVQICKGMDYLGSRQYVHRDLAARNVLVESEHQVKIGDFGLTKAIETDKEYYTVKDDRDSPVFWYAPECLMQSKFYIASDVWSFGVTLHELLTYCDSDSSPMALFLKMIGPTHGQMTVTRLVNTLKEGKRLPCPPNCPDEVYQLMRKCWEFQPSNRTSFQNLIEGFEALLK

Compound structure: CSc1ccc(OC(F)F)c(-c2nn(Cc3nnn(C4CN(CCN(C)C)C4)n3)cc2NC(=O)c2cnn3cccnc23)c1
Ki (nM): 0.46
//
Compound structure: CN(C)CCCCN1CC(n2nnc(Cn3cc(NC(=O)c4cnn5cccnc45)c(-c4cc(OC(F)F)ccc4OC(F)F)n3)n2)C1
Ki (nM): 0.6
//
Compound structure: CC(C)Sc1ccc(OC(F)F)c(-c2nn(Cc3nnn(C4CN(C5CCN(C)CC5)C4)n3)cc2NC(=O)c2cnn3cccnc23)c1
Ki (nM): 0.5
//
Compound structure: CN1CC(Cn2nnnc2Cn2cc(NC(=O)c3cnn4cccnc34)c(-c3cc(OC(F)F)ccc3OC(F)F)n2)C1
Ki (nM): 0.55

----------
biological target: recombinant human JAK1 kinase domain protein (Residues 854-1154) (Homo sapiens); construct: human JAK1 kinase domain protein (Residues 854-1154); experiment: JAK1 biochemical assay (microfluidic mobility shift, peptide phosphorylation); conditions: 25 μM ATP, 1 nM total JAK1; Ki calculated from Ki app (tight-binding, competitive); read-out: Biochem JAK1 Ki
Note to self: use criterion met only for Ki readings below 0.6 nM; a reading exactly at 0.6 nM still gets criterion not met.

Compound: O=C(Nc1cn(Cc2nnn(C3CNC3)n2)nc1-c1cc(Cl)ccc1OC(F)F)c1cnn2cccnc12 [Example 8]
Cat: criterion met
//
Compound: CN(C)[C@H]1C[C@@H](N2CC(n3nnc(Cn4cc(NC(=O)c5cnn6cccnc56)c(-c5cc(OC(F)F)ccc5OC(F)F)n4)n3)C2)C1 [Example 71]
Cat: criterion not met
//
Compound: O=C(Nc1cn(Cc2nnn(CCO)n2)nc1-c1cc(Cl)ccc1OC(F)F)c1cnn2cccnc12 [Example 1]
Cat: criterion met
//
Compound: CSc1ccc(OC(F)F)c(-c2nn(Cc3nnn(CCN(C)C)n3)cc2NC(=O)c2cnn3cccnc23)c1 [Example 36]
Cat: criterion met
//
Compound: CN(C)CCCN1CC(n2nnc(Cn3cc(NC(=O)c4cnn5cccnc45)c(-c4cc(Cl)ccc4OC(F)F)n3)n2)C1 [Example 62]
Cat: criterion not met
//
Compound: O=C(Nc1cn(Cc2nnn(C3CCN(C4CCOCC4)CC3)n2)nc1-c1cc(Cl)ccc1OC(F)F)c1cnn2cccnc12 [Example 9]
Cat: criterion met

----------
target: recombinant human JAK1 kinase domain protein (Residues 854-1154) (Homo sapiens, UniProt P23458); construct: human JAK1 kinase domain protein (Residues 854-1154); purchased Proteros Biostructures GmbH (Martinsried, Germany); host or cells: insect cells; assay: JAK1 biochemical assay (microfluidic mobility shift, peptide phosphorylation); details: 25 μM ATP, 1 nM total JAK1; Ki calculated from Ki app (tight-binding, competitive); read-out: Biochem JAK1 Ki

Compound: CN1CCC[C@H]1Cn1nnc(Cn2cc(NC(=O)c3cnn4cccnc34)c(-c3cc(OC(F)F)ccc3OC(F)F)n2)n1 (stereo in doubt)
Ki, nM: 0.48
//
Compound: CN1CCC(n2nnnc2Cn2cc(NC(=O)c3cnn4cccnc34)c(-c3cc(OC(F)F)ccc3OC(F)F)n2)C1 (stereo not drawn)
Ki, nM: 0.51
//
Compound: CNCCn1nnnc1Cn1cc(NC(=O)c2cnn3cccnc23)c(-c2cc(OC(F)F)ccc2OC(F)F)n1
Ki, nM: 0.22
//
Compound: CN1CC(N(C)CCn2nnnc2Cn2cc(NC(=O)c3cnn4cccnc34)c(-c3cc(OC(F)F)ccc3OC(F)F)n2)C1
Ki, nM: 0.81
//
Compound: CN1CC(n2nnc(Cn3cc(NC(=O)c4cnn5cccnc45)c(-c4cc(C5CC5)ccc4OC(F)F)n3)n2)C1
Ki, nM: 0.42
//
Compound: CN(C)CCN1CC(n2nnc(Cn3cc(NC(=O)c4cnn5cccnc45)c(-c4cc(C5CC5)ccc4OC(F)F)n3)n2)C1
Ki, nM: 0.5
//
Compound: CN1CCC[C@@H]1Cn1nnc(Cn2cc(NC(=O)c3cnn4cccnc34)c(-c3cc(OC(F)F)ccc3OC(F)F)n2)n1 (stereo in doubt)
Ki, nM: 0.53
//
Compound: CN(C)[C@H]1C[C@H](n2nnc(Cn3cc(NC(=O)c4cnn5cccnc45)c(-c4cc(OC(F)F)ccc4OC(F)F)n3)n2)C1
Ki, nM: 0.87
//
Compound: CN1CCC(n2nnc(Cn3cc(NC(=O)c4cnn5cccnc45)c(-c4cc(OC(F)F)ccc4OC(F)F)n3)n2)C1 (single isomer, unassigned) [Example 30]
Ki, nM: 0.4
//
Compound: CN1CCC[C@H]1CN1CC(n2nnc(Cn3cc(NC(=O)c4cnn5cccnc45)c(-c4cc(OC(F)F)ccc4OC(F)F)n3)n2)C1 (racemic) [Example 52]
Ki, nM: 0.38
//
Compound: CN(C)C(C)(C)CCN1CC(n2nnc(Cn3cc(NC(=O)c4cnn5cccnc45)c(-c4cc(OC(F)F)ccc4OC(F)F)n3)n2)C1
Ki, nM: 0.38
//
Compound: CN1CCN(CCn2nnnc2Cn2cc(NC(=O)c3cnn4cccnc34)c(-c3cc(Cl)ccc3OC(F)F)n2)CC1
Ki, nM: 0.33
//
Compound: CN1CCC(n2nnc(Cn3cc(NC(=O)c4cnn5cccnc45)c(-c4cc(OC(F)F)ccc4OC(F)F)n3)n2)CC1
Ki, nM: 0.44
//
Compound: CN(C)C1CCC(N2CC(n3nnc(Cn4cc(NC(=O)c5cnn6cccnc56)c(-c5cc(OC(F)F)ccc5OC(F)F)n4)n3)C2)C1 (single isomer, unassigned) [Example 74]
Ki, nM: 0.55
//
Compound: CN(C)CCn1nnnc1Cn1cc(NC(=O)c2cnn3cccnc23)c(-c2cc(OC(F)F)ccc2OC(F)F)n1
Ki, nM: 0.43
//
Compound: CN(C)C1CCC(N2CC(n3nnc(Cn4cc(NC(=O)c5cnn6cccnc56)c(-c5cc(OC(F)F)ccc5OC(F)F)n4)n3)C2)C1 (single isomer, unassigned) [Example 75]
Ki, nM: 1.1
//
Compound: CN1CCC(n2nnc(Cn3cc(NC(=O)c4cnn5cccnc45)c(-c4cc(Cl)ccc4OC(F)F)n3)n2)CC1
Ki, nM: 0.58
//
Compound: CN(CCN1CC(n2nnc(Cn3cc(NC(=O)c4cnn5cccnc45)c(-c4cc(OC(F)F)ccc4OC(F)F)n3)n2)C1)C(=O)OC(C)(C)C
Ki, nM: 0.34
//
Compound: CN(C)CCN(C)C1CC(n2nnc(Cn3cc(NC(=O)c4cnn5cccnc45)c(-c4cc(OC(F)F)ccc4OC(F)F)n3)n2)C1 (single isomer, unassigned) [Example 81, formic acid]
Ki, nM: 0.52
//
Compound: CN1CC(n2nnc(Cn3cc(NC(=O)c4cnn5cccnc45)c(-c4cc(Cl)ccc4OC(F)F)n3)n2)C1
Ki, nM: 0.42
//
Compound: CN(C)[C@H]1C[C@@H](n2nnc(Cn3cc(NC(=O)c4cnn5cccnc45)c(-c4cc(OC(F)F)ccc4OC(F)F)n3)n2)C1
Ki, nM: 0.64
//
Compound: CN1CCC(N2CC(n3nnc(Cn4cc(NC(=O)c5cnn6cccnc56)c(-c5cc(OC(F)F)ccc5OC(F)F)n4)n3)C2)C1 (single isomer, unassigned) [Example 73]
Ki, nM: 0.64
//
Compound: CN(C)CCN1CCC(n2nnc(Cn3cc(NC(=O)c4cnn5cccnc45)c(-c4cc(OC(F)F)ccc4OC(F)F)n3)n2)C1 (single isomer, unassigned) [Example 68]
Ki, nM: 0.46
//
Compound: CN(C)CC(F)CN1CC(n2nnc(Cn3cc(NC(=O)c4cnn5cccnc45)c(-c4cc(OC(F)F)ccc4OC(F)F)n3)n2)C1 (single isomer, unassigned) [Example 84]
Ki, nM: 0.55
